Biological target: human PPARγ (Homo sapiens, UniProt P37231)
Construct: 1.6 kb of fragment of the prepared plasmid pGEMT-hPPARg2 including human PPARγ gene
Sequence (P37231 whole entry, the tested form may be a part): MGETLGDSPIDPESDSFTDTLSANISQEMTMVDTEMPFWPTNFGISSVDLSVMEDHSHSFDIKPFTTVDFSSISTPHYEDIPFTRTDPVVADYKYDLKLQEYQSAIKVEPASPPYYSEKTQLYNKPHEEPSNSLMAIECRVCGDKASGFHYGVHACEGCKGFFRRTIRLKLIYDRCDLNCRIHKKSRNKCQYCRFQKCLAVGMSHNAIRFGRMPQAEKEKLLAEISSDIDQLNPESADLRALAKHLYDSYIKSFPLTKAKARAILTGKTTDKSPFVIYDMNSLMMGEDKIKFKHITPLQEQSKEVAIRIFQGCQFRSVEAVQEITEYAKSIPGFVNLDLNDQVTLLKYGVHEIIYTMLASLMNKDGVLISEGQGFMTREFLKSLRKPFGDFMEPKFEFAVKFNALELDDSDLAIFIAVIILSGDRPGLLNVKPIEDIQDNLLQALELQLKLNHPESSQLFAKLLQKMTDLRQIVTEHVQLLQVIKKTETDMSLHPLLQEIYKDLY
Sequence (P19793 whole entry partner, the tested form may be a part): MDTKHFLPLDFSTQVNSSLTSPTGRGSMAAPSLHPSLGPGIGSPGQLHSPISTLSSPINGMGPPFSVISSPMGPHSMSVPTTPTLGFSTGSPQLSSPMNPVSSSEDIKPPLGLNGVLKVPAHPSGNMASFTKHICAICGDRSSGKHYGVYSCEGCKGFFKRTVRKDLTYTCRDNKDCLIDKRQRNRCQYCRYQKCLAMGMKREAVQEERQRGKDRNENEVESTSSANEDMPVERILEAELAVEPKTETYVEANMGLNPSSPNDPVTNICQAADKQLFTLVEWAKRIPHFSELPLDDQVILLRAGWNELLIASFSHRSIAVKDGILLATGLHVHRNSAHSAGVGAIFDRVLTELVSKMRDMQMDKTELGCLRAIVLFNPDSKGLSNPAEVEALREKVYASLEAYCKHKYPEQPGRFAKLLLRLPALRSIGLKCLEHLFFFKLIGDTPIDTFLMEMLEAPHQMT
Assay: Human PPARγ antagonist assay (luciferase reporter in transfected CV-1 cells)
Conditions: CV-1 cells expressing human PPARγ and RXRα with reporter plasmid; pioglitazone 1 μM as stimulant; 24 hours; read-out: Human PPARγ antagonist activities, Inhibition IC50
pIC50: −log10 of the molar value.
If the reported pIC50 equals or exceeds 6, assign criterion met. If not, assign criterion not met.

Is reported pIC50 greater than or equal to 6 here: Cc1oc(-c2ccccc2)nc1COc1ccc(Cn2c3ccccc3c3c(OC(C)(C)C(=O)O)cccc32)cc1 [Example 13] criterion not met

Is reported pIC50 greater than or equal to 6 here: CC[C@H](Oc1cccc2c1c1ccccc1n2Cc1ccc(OCc2nc(-c3ccccc3)oc2C)c(OC)c1)C(=O)[O-].[Na+] [Example 38] criterion met

Is reported pIC50 greater than or equal to 6 here: COc1cc(Cn2c3ccccc3c3c(OCC(C)(C)C(=O)O)cccc32)ccc1OCc1nc(-c2cccs2)oc1C [Example 24] criterion met

Is reported pIC50 greater than or equal to 6 here: COc1cc(Cn2c3ccccc3c3c(O[C@@H](C)C(=O)O)cccc32)ccc1OCc1nc(-c2ccccc2)oc1C [Example 39] criterion met

Is reported pIC50 greater than or equal to 6 here: COc1cc(Cn2c3ccccc3c3c(OCC(C)(C)C(=O)O)cccc32)ccc1OCc1nc(-c2ccco2)oc1C [Example 23] criterion met

Is reported pIC50 greater than or equal to 6 here: COc1cc(Cn2c3ccccc3c3c(OCC(C)(C)C(=O)O)cccc32)ccc1OCc1nc(-c2ccccc2)oc1C [Example 22] criterion met

====

Molecular target: human PPARα (Homo sapiens, UniProt Q07869)
Construct: 1.6 kb of DNA fragment including human PPARα gene was collected from the gel; expressed in transfected cells; host or cells: CV-1 cells, transient transfection with pCI-hPPARa, pCI-hRXRa and the reporter pGL3-PPRE3-TK
Sequence (Q07869 whole entry, the tested form may be a part): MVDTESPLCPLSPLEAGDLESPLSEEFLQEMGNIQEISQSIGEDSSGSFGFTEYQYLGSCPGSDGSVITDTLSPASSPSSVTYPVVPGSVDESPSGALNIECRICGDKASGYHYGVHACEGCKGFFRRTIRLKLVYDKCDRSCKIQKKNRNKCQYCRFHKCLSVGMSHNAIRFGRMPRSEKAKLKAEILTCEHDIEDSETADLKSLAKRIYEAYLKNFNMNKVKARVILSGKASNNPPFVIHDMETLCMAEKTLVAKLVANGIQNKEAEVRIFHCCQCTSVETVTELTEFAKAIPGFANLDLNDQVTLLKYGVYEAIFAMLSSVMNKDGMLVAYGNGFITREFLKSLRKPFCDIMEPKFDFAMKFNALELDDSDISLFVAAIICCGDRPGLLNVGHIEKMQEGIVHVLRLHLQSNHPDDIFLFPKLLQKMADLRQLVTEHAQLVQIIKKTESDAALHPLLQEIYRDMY
Sequence (P19793 whole entry partner, the tested form may be a part): as the sequence (P19793 whole entry partner, the tested form may be a part) above
Experiment: Human PPARα agonist assay (luciferase reporter in transfected CV-1 cells)
Assay type: cell-based
Settings: at 1 μM test compound alone; 100% = 1 μM stimulant (GW7647) only; CV-1 cells expressing human PPARα and RXRα
testReadout: Human PPARα agonist activities, Activity % (at 1 μM)
Note: state the figure and append the unit.

Recorded Human PPARα agonist activities, Activity % (at 1 μM) for COc1cc(Cn2c3ccccc3c3c(OC(C)(C)C(=O)O)cccc32)ccc1OCc1nc(-c2ccncc2)oc1C [Example 9] , please? 27%

Recorded Human PPARα agonist activities, Activity % (at 1 μM) for COc1cc(Cn2c3ccccc3c3c(OC(C)C(=O)O)cccc32)ccc1OCc1nc(-c2ccccc2)oc1C (racemic) [Example 4] , please? 21%

Recorded Human PPARα agonist activities, Activity % (at 1 μM) for COc1cc(Cn2c3ccccc3c3c(OCCC(C)C(=O)[O-])cccc32)ccc1OCc1nc(-c2ccccc2)oc1C.[Na+] (racemic) [Example 37] , please? 20%

Recorded Human PPARα agonist activities, Activity % (at 1 μM) for COc1cc(Cn2c3ccccc3c3c(OC(C)C(=O)[O-])cccc32)ccc1OCc1nc(-c2ccccc2)oc1C.[Na+] (racemic) [Example 30] , please? 35%

====

Target: human PPARγ (Homo sapiens, UniProt P37231)
Construct: 1.6 kb of fragment of the prepared plasmid pGEMT-hPPARg2 including human PPARγ gene
Assay: Human PPARγ antagonist assay (luciferase reporter in transfected CV-1 cells)
Details: CV-1 cells expressing human PPARγ and RXRα with reporter plasmid; pioglitazone 1 μM as stimulant; 24 hours; read-out: Human PPARγ antagonist activities, Inhibition IC50
Exercise: for every item that follows, state its recorded IC50.
Please state the figure in µM; there is no need to write the unit.

Recorded IC50 for COc1cc(Cn2c3ccccc3c3c(OC(C(=O)O)c4ccccc4)cccc32)ccc1OCc1nc(-c2ccccc2)oc1C (racemic) [Example 26] , please? 0.546

Recorded IC50 for "COc1cc(Cn2c3ccccc3c3c(Oc4cccc(C(=O)O)c4)cccc32)ccc1OCc1nc(-c2ccccc2)oc1C" , please? 2.49

Recorded IC50 for "COc1cc(Cn2c3ccccc3c3c(Oc4ccccc4C(=O)O)cccc32)ccc1OCc1nc(-c2ccccc2)oc1C" , please? 0.03

Recorded IC50 for COc1cc(Cn2c3ccccc3c3c(OCCCC(=O)O)cccc32)ccc1OCc1nc(-c2ccccc2)oc1C [Example 33] , please? 1.39

Recorded IC50 for COc1cc(Cn2c3ccccc3c3c(OCCC(C)C(=O)[O-])cccc32)ccc1OCc1nc(-c2ccccc2)oc1C.[Na+] (racemic) , please? 0.354

Recorded IC50 for CCCCC(Oc1cccc2c1c1ccccc1n2Cc1ccc(OCc2nc(-c3ccccc3)oc2C)c(OC)c1)C(=O)O (racemic) , please? 0.32

Recorded IC50 for COc1cc(Cn2c3ccccc3c3c(OC(C)C(=O)[O-])cccc32)ccc1OCc1nc(-c2ccccc2)oc1C.[Na+] (racemic) , please? 0.983

Recorded IC50 for COc1cc(Cn2c3ccccc3c3c(OCC(C)(C)C(=O)O)cccc32)ccc1OCc1nc(-c2ccncc2)oc1C [Example 25] , please? 0.43

Recorded IC50 for "COc1cc(Cn2c3ccccc3c3c(OC(C)(C)C(=O)O)cccc32)ccc1OCc1nc(-c2ccccc2)sc1C" , please? 5.98

Recorded IC50 for "COc1cc(Cn2c3ccccc3c3c(OCC(C)(C)C(=O)[O-])cccc32)ccc1OCc1nc(-c2ccccc2)oc1C.[Na+]" , please? 0.085

Recorded IC50 for COc1cc(Cn2c3ccccc3c3c(OC(C(=O)O)c4ccccc4)cccc32)ccc1OCc1nc(-c2ccccc2)oc1C (single isomer, unassigned) [Example 50] , please? 0.471

Recorded IC50 for COc1cc(Cn2c3ccccc3c3c(OC(C(=O)O)c4ccccc4)cccc32)ccc1OCc1nc(-c2ccccc2)oc1C (single isomer, unassigned) [Example 51] , please? 2.19

Recorded IC50 for CCCC(Oc1cccc2c1c1ccccc1n2Cc1ccc(OCc2nc(-c3ccccc3)oc2C)c(OC)c1)C(=O)O (racemic) , please? 0.281

Recorded IC50 for "COc1cc(Cn2c3ccccc3c3c(Oc4ccc(C(=O)O)cc4)cccc32)ccc1OCc1nc(-c2ccccc2)oc1C" , please? 1.05
